Test Method Notes: protein stability index of a GFP-peptide fusion (yeast GPS) (PSI 1-4); higher = more stable; sorted into four equal gates, so the index is relative within each strain
Run Parameters: san1∆
Quantity Name: protein stability index

                                 seq  result_value
 0          IQNQSPQFNSPYDSNNS [SWI1]          2.74
 1         VRLQRQKKILSIRLKVP [RPL8B]          1.27
 2          SIHVNRVERSSRSTDNF [RRI1]          3.03
 3          RNDSTVNDSVISAPSME [BRN1]          2.78
 4         DQFRDVEITFGKEFGDV [RRP45]          3.54
 5         LAFAKLVHSEYLINGKR [SRP68]          2.15
 6         IPATIFDKVIYHLHPTF [TAF14]          2.55
 7          IRRTFNIVNDFTPEEEA [SKP1]          3.16
 8  SLQYIERQQDELENFLD [YJL041W/NSP1]          3.43
 9  TSFGQPQSAPNQMGMGT [YOR098C/NUP1]           2.9
10          FDEFMNVVIDEAVEIPV [SME1]          2.94
11          AAPAATSAASGDAAPAE [RPP0]           1.6
12          NSIESKNLSLQTGTKPV [COR1]          2.95
13        AIMNCADNSGARNLYII [RPL23A]          2.52
14        RTKTPGPGGQAALRALA [RPS14B]          2.23
15  ELSDSWRAHDSSIVAID [YGL100W/SEH1]          3.24
16        APPQRPRFNRENKVSPA [RPS26A]             3
17         SSAKRSKNTAVSKVQKR [SRP72]          2.09
18          TTQIDLFRIFSMSEEFK [BRR2]          2.49
19          FLPKLNSVRNSLLLAHF [NUT1]          1.65
20          KRIESLQKDLQRQKTYV [SMC1]          2.85
21          IVVVIEIITSLSMRFQR [SRB8]          2.18
22         ELEQLSSEALEAARICA [RPL10]          1.33
23          ANGGSTIISPHKDIPEE [DSN1]          3.57
24          IAPRRKRLADGLSVTQK [DIS3]          3.16
25         RLPHQFRPIEIFTDFLP [RRP42]          2.03
26          GENAAEKPDNSNHNNLN [SNF2]          3.27
27          YRLDIIESALKSKLDQD [RPN2]          1.99
28         EGYGLRDVMCTDGVIGS [RPO31]          2.58
29          RMERIKDHLLLEEEFVS [RPT2]          2.09

* * *

Test Method Notes: protein stability index of a GFP-peptide fusion (yeast GPS) (PSI 1-4); higher = more stable; sorted into four equal gates, so the index is relative within each strain
Run Parameters: san1∆
protein stability index values, listed per item
Quantity Name: protein stability index

>>> df
                                 seq  result_value
0           ELAKEAKKSTTISKEST [ESC2]          2.63
1           IPVKLLNEAQGHIVSLE [SMD3]          2.77
2           KNKENNTFTWNHSLQHQ [RPN4]          2.25
3           QFAPAFLNTPNNNINEN [SSN2]          2.66
4         IERYPLKVTKKHGAKKV [RPL27A]          3.54
5  TGATSLFGSSNNNNNNN [YGL172W/NUP49]          2.34
6          KDLQENLLVLRGKNEII [RPO21]           1.6

* * *

Test Method Notes: protein stability index of a GFP-peptide fusion (yeast GPS) (PSI 1-4); higher = more stable; sorted into four equal gates, so the index is relative within each strain
Run Parameters: ubr1∆
Quantity Name: protein stability index

In [3]: df
Out[3]:
                                 seq  result_value
 0          QNIETRQLANLIPFIVK [NUT1]          1.63
 1          MCQNPMQKPVPFVPVLD [FAS1]          1.52
 2  NCIRILADKLENYEGKQ [YIL149C/MLP2]          2.81
 3        LMKKACYVGLLTAIPIL [SNU114]          1.66
 4          VQKILPLSNEVFEISEN [SWI1]          2.17
 5          IAHENEQKWLIYDKKDH [SRB8]           2.8
 6          NNYKDLLAVAIAASYHY [RPP0]          1.64
 7          TKANDKNESATINEMMK [FAS2]          3.11
 8          ILSQQFDKIIKIREDHI [SRB8]          2.84
 9          IYSVEKKISRLPKFLTV [UBP6]          2.46
10          AGAGEANGTVVSFIKNG [MTR3]          2.21
11          TVEPVYQMHIKTSKDIA [FAS1]          1.35
12         VYTAIYNYCVNKSRSSG [CDC53]          2.71
13          LLISDTESNELIQKLQN [IRR1]           2.9
14        IPSSKIDDFTTRLWGSV [SNU114]          3.21

* * *

Test Method Notes: protein stability index of a GFP-peptide fusion (yeast GPS) (PSI 1-4); higher = more stable; sorted into four equal gates, so the index is relative within each strain
Run Parameters: ubr1∆
Classify by measured protein stability index: Y if it is equal to or exceeds 3, N if it is smaller.

In [3]: df
Out[3]:
                                   seq  class_name
 0           RHLVNRGREEAASFKKL [PRE10]           N
 1    IGSTSKRPIESGTSSDP [YIL149C/MLP2]           Y
 2            ITHAHSLSNPNSTATMQ [PGD1]           N
 3            DINVESLTQSVCDLALR [PUP2]           N
 4            TFGKPEEEDSILSLEQS [YCS4]           Y
 5            LDDPEAVSKDPLLTKRK [DIS3]           Y
 6            SKEDTLRLCLDIVPYFL [RPN1]           N
 7            GSEIAISSLGYRSHIFA [SWI3]           N
 8            GKICLILTRLNGILPDD [SSN2]           Y
 9            LLSIKLPGKVNTKEEFA [SNF5]           N
10  NKLFTEPIKLEPVKEYT [YMR129W/POM152]           N
11            IVISLKNTMFEKSDALV [SMC1]           N
12            DKLTSIQDTLRTGSQSP [MED7]           N
13            SRHFASYANLPGTITHG [FAS1]           N
14            ILRKELSEEKEVIFTDV [MCD1]           N
15            QEAIQQNRRLAFEELEG [PRP8]           N
16  VNLEDNTQDLLLLLSLF [YML103C/NUP188]           N
17          TRYMFQRDFRKHGAVHL [RPL21A]           N
18            ESRKAFFLGYMINRLLL [RPB2]           N
19            VLKTLEYKLATYGVPGS [NUT1]           N
20            RVADEDANLNDLPETGF [IRR1]           Y
21            RSKNLIFNGETLEDALR [GRR1]           N
22  FEIQGVPPMKLAYSKIV [YMR129W/POM152]           N
23            PHHNQSPRNTYQCAMGK [RET1]           N
24          AIMNCADNSGARNLYII [RPL23A]           Y
25            KQHAVLMLGSVNLPGGI [RRP4]           N
26            YYDRKEELKNMFLYILK [RRI2]           N
